// data source = PubChem BioAssay

test: viability loss with induced miR-34 in A549 – imaging, A549 dox-inducible miR-34, nuclei and caspase counts, primary screen (AID 1347080); conditions: A549 miR-34 inducible, Hoechst nuclei count, 48 h; measured here: relative caspase fold change +Dox/-Dox
recorded metric: fold change
Respond numerically, and do not add a unit to the figure.

These solved cases illustrate the format of a correct answer.
compound	fold change
CN(C)c1ccc(O)c2c1CC1CC3[C@@H](N(C)C)C(=O)C(C(N)=O)=C(O)[C@]3(O)C(=O)C1=C2O (stereo partly drawn)	1.3
CN(C)CCCc1cc(C(=O)Nc2ccc(-c3ccncc3)cc2)ccc1O	1.13
CC(=O)O[C@]12COC1CC(O)[C@]1(C)C(=O)C(O)C3=C(C)C(OC(=O)C(O)C(NC(=O)OC(C)(C)C)c4ccccc4)C[C@](O)(C(OC(=O)c4ccccc4)C21)C3(C)C (stereo partly drawn)	0.7
FC(F)Oc1ccc(-c2nc3c(cnn3Cc3cccs3)[nH]2)cc1	1.61
CC(C)(C)Nc1nc(N)c(C(=O)c2ccccc2)s1	0.5

Task: Complete the entry with fold change for "N#Cc1cc(CN2CCC(Nc3ncnc4sc(Cl)cc34)CC2)ccc1F"
Output: 0.447

Task: Complete the entry with fold change for COC(=O)NC(C)CNc1nccc(-c2cn(C(C)C)nc2-c2cc(Cl)cc(NS(C)(=O)=O)c2F)n1 (stereo not drawn)
Output: 0.272

Task: Complete the entry with fold change for "C[N+](C)(C)[C@@H](Cc1c[nH]c(=S)[nH]1)C(=O)[O-]"
Output: 1.27

Task: Complete the entry with fold change for CCOc1cc(C(CS(C)(=O)=O)N2C(=O)c3cccc(NC(C)=O)c3C2=O)ccc1OC (stereo not drawn)
Output: 0.498

###

assay: viability loss with induced miR-34 in A549 – imaging, A549 dox-inducible miR-34, nuclei and caspase counts, primary screen (AID 1347080); conditions: A549 miR-34 inducible, Hoechst nuclei count, 48 h; measured here: relative caspase fold change +Dox/-Dox
recorded metric: fold change

Task: Complete the entry with fold change for O=C1OC(C(O)CO)C(O)=C1O (centres undefined)
Output: 1.05

Task: Complete the entry with fold change for NC[C@@H]1O[C@H](O[C@H]2[C@@H](O)[C@H](O[C@@H]3[C@@H](O)[C@H](N)C[C@H](N)[C@H]3OC3O[C@H](CO)[C@@H](O)[C@H](O)[C@H]3N)O[C@@H]2CO)[C@H](N)[C@@H](O)[C@@H]1O (some centres undefined)
Output: 1.19

Task: Complete the entry with fold change for "CN1CCN(c2ncnc3sccc23)CC1=O"
Output: 1.32

Task: Complete the entry with fold change for CC(C)C(NC(=O)Cc1c[nH]c2ccccc12)C(=O)O (centres undefined)
Output: 0.806

###

assay: MELAS cybrid and Rieske KO viability enhancers – cell-based, MELAS cybrids, Rieske KO mouse fibroblasts, CellTiter-Glo, primary screen (AID 1508586); conditions: MELAS cybrid survival, low glucose, CellTiter-Glo 48 h; stronger effect = higher value;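 further: z relative to plate mean and SD of compound and empty wells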
recorded metric: z-score
Respond numerically, and do not add a unit to the figure.

These solved cases illustrate the format of a correct answer.
compound	measurement
CN/C(=C/[N+](=O)[O-])NCCSCc1csc(CN(C)C)n1	0.561
COc1cccc2c(=O)n(Cc3ccc4nonc4c3)cnc12	0.215
COc1cccc(COC2CN(CCc3ccccc3)C(=O)CN(C(=O)CN3CCOC3=O)C2)c1 (stereo unspecified)	-0.0866
CCOc1cc(CC(=O)NC(CC(C)C)c2ccccc2N2CCCCC2)ccc1C(=O)O (stereo unspecified)	-0.382
OCC(O)C(O)CO (stereo unspecified)	-0.193

Task: Complete the entry with z-score for "C/C=C/C1=C(C(=O)O)N2C(=O)[C@@H](NC(=O)[C@H](N)c3ccc(O)cc3)[C@H]2SC1"
Output: -0.679

Task: Complete the entry with z-score for "COc1ccc2c(c1)CCN(C(=O)Nc1n[nH]c(-c3ccccc3F)n1)C2"
Output: -0.521

Task: Complete the entry with z-score for "O=C(O)Cc1ccc(O)c([N+](=O)[O-])c1"
Output: 0.677

Task: Complete the entry with z-score for "COc1ccc(C(=O)N2CCN3C(=O)[C@H](COCc4ccccc4)NC(=O)[C@H]3C2)cc1"
Output: 1.06

Task: Complete the entry with z-score for C=Cc1c(C)c2cc3nc(cc4[nH]c(cc5nc(cc1[nH]2)C(C)=C5CCC(=O)O)c(CCC(=O)OC)c4C)[C@@]1(C)C3=CC=C(C(=O)OC)C1C(=O)OC (stereo partly specified)
Output: 1.85

Task: Complete the entry with z-score for "O=C(Nc1n[nH]c(-c2ccco2)n1)N1CCc2ccccc2C1"
Output: 1.17

Task: Complete the entry with z-score for CC(C)c1nc(N(C)S(C)(=O)=O)nc(-c2ccc(F)cc2)c1C=CC(O)CC(O)CC(=O)O (stereo unspecified)
Output: 0.606

Task: Complete the entry with z-score for "CC(=O)N[C@@H](CC(=O)N[C@H](CCC(=O)O)C(=O)O)C(=O)O"
Output: 0.603

###

Measured viability of individual entries
assay: drug combination growth inhibition, ovarian cancer – cell-based, oncology-focused library, rucaparib conditional, profiling panel (AID 1508598); settings: patient-derived ovarian cancer cells, CellTiter-Glo viability, 144 h; at 0.00488 µM; OCI-C5x cells; with rucaparib 10 µM; stronger effect = lower value; 100% = cells with rucaparib alone
Write the value in % as a bare number.

These solved cases illustrate the format of a correct answer.
molecule	viability [%]
CN(C)CCSSCCNC(=O)C1CCN(C(=O)CSc2ccc(Cl)cc2)CC1	126
CCNC(=O)c1noc(-c2cc(Cl)c(O)cc2O)c1-c1ccc(OC)cc1	138
Nc1ncn([C@@H]2O[C@H](CO)[C@@H](O)[C@@H]2O)c(=O)n1	114
CO[C@H]1C[C@@H]2CC[C@@H](C)[C@@](O)(O2)C(=O)C(=O)N2CCCC[C@H]2C(=O)O[C@H]([C@H](C)C[C@@H]2CC[C@@H](O)[C@H](OC)C2)CC(=O)[C@H](C)/C=C(\C)[C@@H](O)[C@H](OC)C(=O)[C@H](C)C[C@H](C)/C=C/C=C/C=C/1C	94.9

Task: Complete the entry with viability for "CC#C[C@@]1(O)CC[C@H]2[C@@H]3CCC4=CC(=O)CCC4=C3[C@H](c3ccc(N(C)C)cc3)C[C@@]21C"
Output: 122

Task: Complete the entry with viability for CC(=O)O[C@]12CO[C@@H]1C[C@H](O)[C@]1(C)C(=O)[C@H](O)C3=C(C)[C@H](OC(=O)[C@H](O)[C@@H](NC(=O)OC(C)(C)C)c4ccccc4)C[C@](O)([C@H](OC(=O)c4ccccc4)C21)C3(C)C (stereo not given in full)
Output: 37.6

Task: Complete the entry with viability for "COc1cc(=C2C=c3ccccc3=N2)[nH]/c1=C\c1[nH]c(C)cc1C"
Output: 132

Task: Complete the entry with viability for "CC(=O)O[C@@]1(C(C)=O)CC[C@H]2[C@@H]3C[C@H](C)C4=CC(=O)CC[C@]4(C)[C@@H]3CC[C@@]21C"
Output: 122

Task: Complete the entry with viability for "NC(=O)CCCSc1nc(N)nc(-c2c(Cl)cc3c4c(cccc24)COC3)n1"
Output: 114

###

Measured fold change of individual entries
assay: viability loss with induced miR-34 in A549 – imaging, A549 dox-inducible miR-34, nuclei and caspase counts, primary screen (AID 1347080); settings: A549 miR-34 inducible, Hoechst nuclei count, 48 h; stronger effect = lower value; cell number ratio, induced over uninduced
Respond numerically, and do not add a unit to the figure.

These solved cases illustrate the format of a correct answer.
compound	fold change
CCCCCCCCCCOCCC(=O)O	0.905
CC(C)CC(NC(=O)C(Cc1ccccc1)NC(=O)c1cnccn1)B(O)O (stereo unspecified)	0.948
COc1cc(F)c(F)c(Nc2ccc(I)cc2F)c1NS(=O)(=O)C1(CC(O)CO)CC1 (stereo unspecified)	0.923
CC#C[C@@]1(O)CC[C@H]2[C@@H]3CCC4=CC(=O)CCC4=C3C(c3ccc(N(C)C)cc3)C[C@@]21C (stereo partly specified)	0.891
COc1ccc2c(c1)c(CC(=O)O)c(C)n2C(=O)c1ccccc1	1.07

Task: Complete the entry with fold change for "O=C(O)c1cccc2c(-c3ccccc3)c(-c3ccccc3)[nH]c12"
Output: 0.883

Task: Complete the entry with fold change for "O=c1cc(-c2ccccc2)[nH]c2nc(Cl)ccc12"
Output: 0.977

Task: Complete the entry with fold change for "Cc1csc2ncnc(-c3cccc4ncccc34)c12"
Output: 0.896

Task: Complete the entry with fold change for N#CC1CCCN1C(=O)CNC12CC3CC(CC(O)(C3)C1)C2 (stereo unspecified)
Output: 0.959

###

assay: drug combination growth inhibition, ovarian cancer – cell-based, oncology-focused library, rucaparib conditional, profiling panel (AID 1508598); settings: patient-derived ovarian cancer cells, CellTiter-Glo viability, 144 h; at 0.0195 µM; OCI-C5x cells; without rucaparib
Activity calls are given as the source filed them.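 Rule for the calls: active = normalized viability below 100% at a tested concentration; inactive = the rest.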
Pick from active, inactive when you respond.

For orientation, consider the following solved cases.
molecular string	class assignment
COc1cc(Br)c(Nc2nc(-c3c(C)nc4ncccn34)cs2)c(Br)c1	inactive
Nc1nonc1C(=Nc1ccc(F)c(Cl)c1)NO	inactive
CC[C@]1(O)C[C@@H]2CN(CCc3c([nH]c4ccccc34)[C@@](C(=O)OC)(c3cc4c(cc3OC)N(C=O)[C@H]3[C@@](O)(C(=O)OC)[C@H](OC(C)=O)[C@]5(CC)C=CCN6CC[C@@]43[C@@H]65)C2)C1	active

Now turn to the next compound.
Task: Please share the test call associated with "O=C(O)c1cc(I)ccc1NC(=O)[C@H](Cc1ccccc1)NCc1ccccc1" .
Output: inactive
